Tested on: SK-OV-3 ovarian
Assay: NCI-60 one-dose screen, 48 h (100 = growth as untreated, 0 = no growth, -100 = all killed)
Conditions: 10 µM unless noted
About 83,000 compounds went through this panel and 20% of them were active in at least one assay; those are over-represented in the sample as a whole.
Item-by-item account of growth
Dear colleague, please return just the value in %, with no unit written.

Recorded growth, per entry:
[
  {
    "compound-string": "OCCN1CCN(CCCN2c3ccccc3Sc3ccc(C(F)(F)F)cc32)CC1",
    "growth / %": 73.8
  },
  {
    "compound-string": "c1cc[n+](Cc2ccnc3ccccc23)cc1",
    "growth / %": 103
  },
  {
    "compound-string": "CC(=O)[C@H]1CC[C@H]2[C@@H]3C[C@H](C)C4=CC(=O)CC[C@]4(C)[C@H]3C(=O)C[C@]12C",
    "growth / %": 98
  },
  {
    "compound-string": "C(=C1c2ccccc2-c2ccccc21)c1ccccn1",
    "growth / %": 95.5
  }
]

Proceed to the following item.
// growth value for O=C(c1ccccc1)c1ccc(Oc2ccc([N+](=O)[O-])cc2[N+](=O)[O-])cc1 : 99.9

---

Tested on: NCI/ADR-RES ovarian
Assay: NCI-60 one-dose screen, 48 h (100 = growth as untreated, 0 = no growth, -100 = all killed)
Details: 10 µM unless noted
The panel holds about 83,000 compounds, 20% with a hit somewhere; the sample as a whole holds those more often. The source made the active and inactive calls. The calls were made as follows: active = growth percent below 10; inactive = the rest.
Item-by-item account of growth

[
  {
    "compound-string": "COc1ccc(CNC(=O)c2c(C)n([O-])c3cc(F)c(F)cc3[n+]2=O)cc1",
    "reading": "108% (inactive)"
  },
  {
    "compound-string": "COC(=O)[C@H](Cc1cnc[nH]1)NC(=O)[C@@H](NC(=O)Nc1cc(C(F)(F)F)cc(C(F)(F)F)c1)C(C)C",
    "reading": "73.9% [100 µM] (inactive)"
  },
  {
    "compound-string": "COc1ccc(C(=O)COc2cccc(/C=C3\\CSc4ccc(Cl)cc4C3=O)c2)cc1",
    "reading": "84.3% (inactive)"
  }
]

Result for COc1cc(/C(Cl)=C/C=C/C(=O)c2c(C)[n+]([O-])c3ccc(Cl)cc3[n+]2[O-])cc(OC)c1OC , tested on NCI/ADR-RES ovarian, growth: 31.1% (inactive)

---

Test system: OVCAR-4 ovarian
Assay: NCI-60 one-dose screen, 48 h (100 = growth as untreated, 0 = no growth, -100 = all killed)
Conditions: 10 µM unless noted
This is part of a sample that, as a whole, favours compounds with a hit. Of some 83,000 tested, about 20% had one in any assay.
observed-property: growth (%)
Dear colleague, please return just the value in %, with no unit written.

[
  {
    "molecule": "Nc1ccccc1-c1ccn[nH]1",
    "growth (%)": 94.7
  },
  {
    "molecule": "Clc1ccc(C2c3ccccc3-c3nccn32)c(Cl)c1 (stereo not drawn)",
    "growth (%)": 47.3
  },
  {
    "molecule": "CC[N+](CCCCCCCCCC[N+](CC)(c1ccccn1)c1ccccn1)(c1ccccn1)c1ccccn1",
    "growth (%)": 20.5
  },
  {
    "molecule": "COc1ccc2c(c1)[n+](=O)c(C(=O)/C=C/c1cc(OC)c(OC)c(OC)c1)c(C)n2[O-]",
    "growth (%)": 72.3
  },
  {
    "molecule": "CNNc1ncnc2c1cnn2-c1ccc(S(N)(=O)=O)cc1",
    "growth (%)": 106
  }
]

// growth value for COc1cc(NC(=O)NCc2ccco2)ccc1-c1ccc(NC(=O)NCc2ccco2)cc1OC : 60.9

// growth value for NC(=O)NS(=O)(=O)c1ccc(N2N=C(C(F)(F)F)CC2c2cc(C(F)(F)F)cc(C(F)(F)F)c2)cc1 (stereo not drawn) : 69.7

// growth value for COc1ccc(-n2cnc3cc(C(=O)N4CCCCC4)ccc32)cc1 : 100

Reference source: PubChem BioAssay (NCI)
